- Tested on: 156681-154-R-J1 tumor spheroid viability;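 also: spheroids exposed to compounds for 7 days before readout; percent of vehicle control viability where 100% = DMSO-treated spheroids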
- Measurement Protocol: Anticancer human tumor 156681-154-R-J1 patient-derived melanoma cell line growth inhibition
- Test Parameters: second compound 100 µM; first compound 0.316 µM; active compounds read low; spheroids with HUVEC and MSC
Rule for this label: 1 (yes) means viability, T/C is less than 50%; 0 (no) means viability, T/C is at least 50%.

Compound	Class Name
COc1cc(C)[nH]c(=O)c1CN1CCc2c(Cl)cc(C(OC)C3COC3)c(Cl)c2C1=O (stereo unspecified) + Cn1nnc2c(C(N)=O)ncn2c1=O	0 (no)
Cc1cc(C)c(CNC(=O)c2cc(-c3ccc(CN4CCOCC4)cc3)cc3c2cnn3C2CCCC2)c(=O)[nH]1 + Cn1nnc2c(C(N)=O)ncn2c1=O	0 (no)
CC(C)n1c(=O)n(C)c2cnc3cc(F)c(-c4ccc(OCCCN5CCCCC5)nc4)cc3c21 + Cn1nnc2c(C(N)=O)ncn2c1=O	1 (yes)
COc1ccc([C@@H](O)c2cc(-c3ncnc4cc(N5CCOCC5)ccc34)c(F)cc2Cl)nn1 + Cn1nnc2c(C(N)=O)ncn2c1=O	1 (yes)
CC1COCCN1c1cc(-c2ccnn2C)c2ccnc(-c3ccn[nH]3)c2n1 (stereo unspecified) + Cn1nnc2c(C(N)=O)ncn2c1=O	1 (yes)
[2H]c1nc(C)nc([2H])c1-c1cc(NC[C@@H](C)c2cccc3c(C(=O)NC)ccnc23)ncn1 + Cn1nnc2c(C(N)=O)ncn2c1=O	0 (no)

Origin of the recorded values: PubChem BioAssay AID1845195
